Tested on: UACC-257
Experiment: NCI-60 single dose screen, sulforhodamine B
Type: cell-based, human
Settings: Melanoma UACC-257; single dose 10^−5 M
Metric name: GI% at 10^−5 M

Completed entries (count: 5):
>  <Chemical structure>
O=C(CN1CCN(c2ccccc2)CC1)Nn1c(COc2ccccc2)nc2ccccc2c1=O

>  <System tested>
UACC-257

>  <GI% at 10^−5 M>
– (– means GI < 10%)

$$$$
>  <Chemical structure>
COc1cc(C=Nn2c(COc3ccccc3)nc3ccccc3c2=O)ccc1O

>  <System tested>
UACC-257

>  <GI% at 10^−5 M>
– (– means GI < 10%)

$$$$
>  <Chemical structure>
O=c1c2ccccc2nc(COc2ccccc2)n1NS(=O)(=O)c1ccc(Cl)cc1

>  <System tested>
UACC-257

>  <GI% at 10^−5 M>
– (– means GI < 10%)

$$$$
>  <Chemical structure>
Cc1ccc(S(=O)(=O)Nn2c(COc3ccccc3)nc3ccccc3c2=O)cc1

>  <System tested>
UACC-257

>  <GI% at 10^−5 M>
– (– means GI < 10%)

$$$$
>  <Chemical structure>
O=c1c2ccccc2nc(COc2ccccc2)n1NS(=O)(=O)c1ccccc1

>  <System tested>
UACC-257

>  <GI% at 10^−5 M>
– (– means GI < 10%)

$$$$

Dear colleague, could you send me GI% at 10^−5 M for each of the items below? Thanks.
1. O=C(CNn1c(COc2ccccc2)nc2ccccc2c1=O)Nc1ccccc1
2. O=c1c2ccccc2nc(COc2ccccc2)n1N=CC=Cc1ccccc1
3. O=C(CNn1c(COc2ccccc2)nc2ccccc2c1=O)Nc1ccc(Cl)cc1
4. COc1ccc(NC(=O)CNn2c(COc3ccccc3)nc3ccccc3c2=O)cc1
5. CN1CCN(CC(=O)Nn2c(COc3ccccc3)nc3ccccc3c2=O)CC1
6. COc1ccc(N2CCN(CC(=O)Nn3c(COc4ccccc4)nc4ccccc4c3=O)CC2)cc1

["– (– means GI < 10%)", "– (– means GI < 10%)", "– (– means GI < 10%)", "– (– means GI < 10%)", "– (– means GI < 10%)", "– (– means GI < 10%)"]

----------
Tested on: LOX IMVI
Test: NCI-60 single dose screen, sulforhodamine B
Type: cell-based, human
Details: Melanoma LOX IMVI; single dose 10^−5 M
Metric name: GI% at 10^−5 M

Completed entries (count: 6):
>  <Compound>
COc1ccc(NC(=O)CNn2c(COc3ccccc3)nc3ccccc3c2=O)cc1 [Compound 4b]

>  <System tested>
LOX IMVI

>  <GI% at 10^−5 M>
– (– means GI < 10%)

$$$$
>  <Compound>
O=C(CNn1c(COc2ccccc2)nc2ccccc2c1=O)Nc1ccccc1 [Compound 4a]

>  <System tested>
LOX IMVI

>  <GI% at 10^−5 M>
– (– means GI < 10%)

$$$$
>  <Compound>
COc1cc(C=Nn2c(COc3ccccc3)nc3ccccc3c2=O)ccc1O [Compound 6a]

>  <System tested>
LOX IMVI

>  <GI% at 10^−5 M>
– (– means GI < 10%)

$$$$
>  <Compound>
Cc1ccc(S(=O)(=O)Nn2c(COc3ccccc3)nc3ccccc3c2=O)cc1 [Compound 5b]

>  <System tested>
LOX IMVI

>  <GI% at 10^−5 M>
– (– means GI < 10%)

$$$$
>  <Compound>
O=C(CN1CCN(c2ccccc2)CC1)Nn1c(COc2ccccc2)nc2ccccc2c1=O [Compound 8b]

>  <System tested>
LOX IMVI

>  <GI% at 10^−5 M>
– (– means GI < 10%)

$$$$
>  <Compound>
CN1CCN(CC(=O)Nn2c(COc3ccccc3)nc3ccccc3c2=O)CC1 [Compound 8a]

>  <System tested>
LOX IMVI

>  <GI% at 10^−5 M>
14.73%

$$$$

Dear colleague, could you send me GI% at 10^−5 M for each of the items below? Thanks.
1. O=C(CNn1c(COc2ccccc2)nc2ccccc2c1=O)Nc1ccc(Cl)cc1 [Compound 4c]
2. O=c1c2ccccc2nc(COc2ccccc2)n1N=CC=Cc1ccccc1 [Compound 6b]
3. O=c1c2ccccc2nc(COc2ccccc2)n1NS(=O)(=O)c1ccccc1 [Compound 5a]
4. COc1ccc(N2CCN(CC(=O)Nn3c(COc4ccccc4)nc4ccccc4c3=O)CC2)cc1 [Compound 8c]
5. O=c1c2ccccc2nc(COc2ccccc2)n1NS(=O)(=O)c1ccc(Cl)cc1 [Compound 5c]

1: – (– means GI < 10%); 2: 27.86%; 3: – (– means GI < 10%); 4: – (– means GI < 10%); 5: 16.40%
